System: Mycobacterium tuberculosis
Assay: Antimycobacterial activity against isoniazid, rifampin, ethambutol and streptomycin-resistant Mycobacterium tuberculosis M4 after 24 hrs by microtiter alamar blue assay
Type: functional
Settings: M4, 24 h
Reported MIC values for a set of compounds
Report as a plain number; the unit mg/L is understood.

COc1cc(/C=C/c2cc(/C=C/c3ccc(OC)c(OC)c3)on2)ccc1O: 6.25

So, COc1cc(/C=C/c2cc(/C=C/c3ccc(OC)c(OC)c3)no2)ccc1O ? Its MIC was 1.56

Recorded result, CCCCCOc1ccc(/C=C/c2cc(/C=C/c3ccc(O)c(OC)c3)on2)cc1OC , MIC: 1.56

Lab note: CCCCCOc1ccc(/C=C/c2cc(/C=C/c3ccc(O)c(OC)c3)no2)cc1OC gave MIC of 1.56
